These measurements were taken from patent US9073821B2.

Measured IC50 of individual entries
# measuredOn: Pseudomonas aeruginosa LpxC enzyme (Pseudomonas aeruginosa (strain ATCC 15692 / DSM 22644 / CIP 104116 / JCM 14847 / LMG 12228 / 1C / PRS 101 / PAO1), UniProt P47205)
# methodDescription: biochemical
# Format: biochemical
# testConditions: inhibitory activity on Pseudomonas aeruginosa LpxC enzyme, class symbols A/B/C; read-out: Enzyme inhibitory activity

>  <compound>
O=C(NC(C(=O)NO)C(=O)NCCc1ccccc1)c1ccc(-c2ccc(OCCO)cc2)cc1 (stereo not drawn) [Compound 125]

>  <IC50>
10 to 100 nM

$$$$
>  <compound>
O=C(NC(C(=O)NO)C(=O)NCC1CNCCO1)c1ccc(-c2ccc(OCCO)cc2)cc1 (stereo not drawn) [Compound 162]

>  <IC50>
10 to 100 nM

$$$$
>  <compound>
CN(C(=O)c1ccc(-c2ccccc2)cc1)C(C(=O)NO)C(=O)NCCc1ccccc1 (stereo not drawn) [Compound 76]

>  <IC50>
> 100 nM

$$$$
>  <compound>
CNC(=O)C(C(=O)NO)N(C)C(=O)c1ccc(-c2ccc(N3CCCC3)cc2)cc1 (stereo not drawn) [Compound 256]

>  <IC50>
< 10 nM

$$$$
>  <compound>
CCOc1ccc(-c2ccc(C(=O)N(C)C(C(=O)NC)C(=O)NO)cc2)cc1 (stereo not drawn) [Compound 211]

>  <IC50>
< 10 nM

$$$$
>  <compound>
CNC(=O)C(C(=O)NO)N(C)C(=O)c1ccc(C#Cc2ccc(CN3Cc4ccccc4C3)cc2)cc1 (stereo not drawn) [Compound 489]

>  <IC50>
< 10 nM

$$$$

Lab note: CNC(=O)C(C(=O)NO)N(C)C(=O)c1ccc(-c2ccc3ccn(C)c3c2)cc1 (stereo not drawn) [Compound 36] gave IC50 of < 10 nM

Just so you know, measured IC50 for CNC(=O)[C@](C)(C(=O)NO)N(C)C(=O)c1ccc(-c2ccccc2)cc1 [Compound 343] came out at > 100 nM

* * *

# measuredOn: Pseudomonas aeruginosa LpxC enzyme (Pseudomonas aeruginosa (strain ATCC 15692 / DSM 22644 / CIP 104116 / JCM 14847 / LMG 12228 / 1C / PRS 101 / PAO1), UniProt P47205)
# methodDescription: biochemical
# Type: biochemical
# testConditions: inhibitory activity on Pseudomonas aeruginosa LpxC enzyme, class symbols A/B/C; read-out: Enzyme inhibitory activity
pIC50: −log10 of the molar value.
Entries annotated with measured pIC50

>  <molecule>
CNC(=O)[C@@](C)(C(=O)NO)N(C)C(=O)c1ccc(C#Cc2ccc(CN3CCCOCC3)cc2)cc1

>  <readoutType>
pIC50

>  <readoutValue>
> 8.00

$$$$
>  <molecule>
CNC(=O)C(C(=O)NO)N(C)C(=O)c1ccc(-c2ccc3c(ccn3CCO)c2)cc1 (stereo not shown)

>  <readoutType>
pIC50

>  <readoutValue>
> 8.00

$$$$
>  <molecule>
CNC(=O)C(C(=O)NO)N(C)C(=O)c1ccc(C#Cc2ccoc2)cc1 (stereo not shown)

>  <readoutType>
pIC50

>  <readoutValue>
7.00 to 8.00

$$$$
>  <molecule>
CNC(=O)C(C(=O)NO)N(C)C(=O)c1ccc(-c2ccc(N(C)CC3CC3)cc2)cc1 (stereo not shown)

>  <readoutType>
pIC50

>  <readoutValue>
> 8.00

$$$$
>  <molecule>
CNC(=O)C(C)(NC(=O)c1ccc(C#Cc2ccc(CN3CCCOCC3)cc2)cc1)C(=O)NO (stereo not shown)

>  <readoutType>
pIC50

>  <readoutValue>
7.00 to 8.00

$$$$

The molecule CNC(=O)C(C(=O)NO)N(C)C(=O)c1ccc(-c2ccc3c(c2)COC3)cc1 (stereo not shown) showed pIC50 equal to > 8.00

Given item CNC(=O)C(C(=O)NO)N(C)C(=O)c1ccc(-c2ccccc2F)c(F)c1 (stereo not shown) , the value recorded as its pIC50 is > 8.00

Reported pIC50 for CNC(=O)C(C(=O)NO)N(C)C(=O)c1ccc(-c2ccc(OCCCN3CCCOCC3)cc2)cc1 (stereo not shown) was > 8.00

Looking up CNC(=O)C(C(=O)NO)N(C)C(=O)c1ccc(C#Cc2ccc(CCN3CCOCC3)cc2)cc1 (stereo not shown) , I found its pIC50 recorded as > 8.00

Briefly, pIC50 measured for CNC(=O)C(C(=O)NO)N(C)C(=O)c1ccc(-c2cc(F)c(NC)cc2F)cc1 (stereo not shown) : > 8.00

* * *

# measuredOn: Pseudomonas aeruginosa LpxC enzyme (Pseudomonas aeruginosa (strain ATCC 15692 / DSM 22644 / CIP 104116 / JCM 14847 / LMG 12228 / 1C / PRS 101 / PAO1))
# methodDescription: biochemical
# Assay type: biochemical
# testConditions: inhibitory activity on Pseudomonas aeruginosa LpxC enzyme, class symbols A/B/C; read-out: Enzyme inhibitory activity
readoutType: IC50

>  <molecule>
CN(C(=O)c1ccc(-c2ccccc2)cc1)C(C(=O)NO)C(=O)NCc1ccncc1 (centres unmarked)

>  <readoutType>
IC50

>  <readoutValue>
> 100 nM

$$$$
>  <molecule>
CNC(=O)C(C(=O)NO)N(C)C(=O)c1ccc(C#CC#Cc2ccc(CN3CCN(C)CC3)cc2)cc1 (centres unmarked)

>  <readoutType>
IC50

>  <readoutValue>
< 10 nM

$$$$
>  <molecule>
CNC(=O)C(C(=O)NO)N(C)C(=O)c1ccc(-c2ccccc2)cc1F (centres unmarked)

>  <readoutType>
IC50

>  <readoutValue>
10 to 100 nM

$$$$
>  <molecule>
CNC(=O)C(C(=O)NO)N(C)C(=O)c1ccc(-c2ccc(OCc3ccc(C(=O)O)cc3)cc2)cc1 (centres unmarked)

>  <readoutType>
IC50

>  <readoutValue>
10 to 100 nM

$$$$
>  <molecule>
CCCNC(=O)c1ccc(-c2ccc(C(=O)N(C)C(C(=O)NC)C(=O)NO)cc2)cc1 (centres unmarked)

>  <readoutType>
IC50

>  <readoutValue>
10 to 100 nM

$$$$
>  <molecule>
CNC(=O)C(C(=O)NO)N(C)C(=O)c1ccc(-c2ccc(OCCF)cc2)cc1 (centres unmarked)

>  <readoutType>
IC50

>  <readoutValue>
< 10 nM

$$$$
>  <molecule>
CNC(=O)C(C(=O)NO)N(C)C(=O)c1ccc(-c2ccc(CNC(C)=O)cc2)cc1 (centres unmarked)

>  <readoutType>
IC50

>  <readoutValue>
10 to 100 nM

$$$$
>  <molecule>
CNC(=O)C(C(=O)NO)N(C)C(=O)c1ccc(-c2ccc(CN3CCOCC3)cc2)cc1 (centres unmarked)

>  <readoutType>
IC50

>  <readoutValue>
10 to 100 nM

$$$$

get_value(item= CC(C)NC(=O)C(NC(=O)c1ccc(-c2ccc(OCCO)cc2)cc1)C(=O)NO (centres unmarked) , readout=IC50) returns 10 to 100 nM

Just so you know, measured IC50 for CNC(=O)C(NC(=O)c1ccc(C#Cc2ccc(CN3CCCOCC3)cc2)cc1)C(=O)NO (centres unmarked) came out at < 10 nM

Quick note, IC50 for CNC(=O)C(C(=O)NO)N(C)C(=O)c1ccc(-c2ccc(C(C)(C)C)cc2)cc1 (centres unmarked) landed at 10 to 100 nM

Looking up CNC(=O)C(C(=O)NO)N(C)C(=O)c1ccc(-c2ccncc2)cc1 (centres unmarked) , I see its IC50 listed as 10 to 100 nM

For CNC(=O)C(C(=O)NO)N(C)C(=O)c1ccc(-c2ccc3c(c2)cc(CN2CCOCC2)n3C)cc1 (centres unmarked) the molecule record lists IC50 as 10 to 100 nM

IC50 reported for this molecule CNC(=O)C(C(=O)NO)N(C)C(=O)c1ccc(-c2ccc(CCN3CCOCC3)cc2)cc1 (centres unmarked) : < 10 nM

* * *

# measuredOn: Pseudomonas aeruginosa LpxC enzyme (Pseudomonas aeruginosa (strain ATCC 15692 / DSM 22644 / CIP 104116 / JCM 14847 / LMG 12228 / 1C / PRS 101 / PAO1))
# methodDescription: biochemical
# Format: biochemical
# testConditions: inhibitory activity on Pseudomonas aeruginosa LpxC enzyme, class symbols A/B/C; read-out: Enzyme inhibitory activity
pIC50: −log10 of the molar value.
Measured pIC50 of individual entries

Here are 5 compounds together with their reported answers.
>  <compound>
CNC(=O)C(C(=O)NO)N(C)C(=O)c1ccc(C2CCCCC2)cc1 (stereo not shown)

>  <pIC50>
7.00 to 8.00

$$$$
>  <compound>
CNC(=O)C(C(=O)NO)N(C)C(=O)c1ccc(-c2ccc(SCCCN3CCOCC3)cc2)cc1 (stereo not shown)

>  <pIC50>
> 8.00

$$$$
>  <compound>
CNC(=O)C(C(=O)NO)N(C)C(=O)c1ccc(-c2ccc(NC)cc2F)cc1 (stereo not shown)

>  <pIC50>
> 8.00

$$$$
>  <compound>
CNC(=O)C(C(=O)NO)N(C)C(=O)c1ccc(OCC#Cc2ccccc2)cc1 (stereo not shown)

>  <pIC50>
7.00 to 8.00

$$$$
>  <compound>
CNC(=O)C(C(=O)NO)N(C)C(=O)c1ccc(C#Cc2ccc(CNCc3cc(C)on3)cc2)cc1 (stereo not shown)

>  <pIC50>
> 8.00

$$$$

Entry CNC(=O)C(C(=O)NO)N(C)C(=O)c1ccc(-c2ccc(N3CCC(CN4CCOCC4)C3)cc2)cc1 (stereo not shown) ; pIC50 = > 8.00

The compound listed as CNC(=O)C(C(=O)NO)N(C)C(=O)c1ccc(OCc2ccccc2)cc1 (stereo not shown) shows pIC50 equal to 7.00 to 8.00

Record CNC(=O)C(C(=O)NO)N(C)C(=O)c1ccc(-c2ccc(SC)cc2)cc1 (stereo not shown) , field pIC50: > 8.00

What the record says about CNC(=O)C(C(=O)NO)N(C)C(=O)c1ccc(-c2ccc(C3OCCO3)cc2)cc1 (stereo not shown) : pIC50 is > 8.00
